Values from patent US20250074871A1

molecular target: 5-HT2A receptor (Homo sapiens, UniProt P28223); construct: expressed in transfected cells; host or cells: HEK293T; assay: 5-HT2A Gq dissociation BRET functional assay; format: cell-based; conditions: Table 2; normalized to % 5-HT stimulation
Sequence (P28223 whole entry): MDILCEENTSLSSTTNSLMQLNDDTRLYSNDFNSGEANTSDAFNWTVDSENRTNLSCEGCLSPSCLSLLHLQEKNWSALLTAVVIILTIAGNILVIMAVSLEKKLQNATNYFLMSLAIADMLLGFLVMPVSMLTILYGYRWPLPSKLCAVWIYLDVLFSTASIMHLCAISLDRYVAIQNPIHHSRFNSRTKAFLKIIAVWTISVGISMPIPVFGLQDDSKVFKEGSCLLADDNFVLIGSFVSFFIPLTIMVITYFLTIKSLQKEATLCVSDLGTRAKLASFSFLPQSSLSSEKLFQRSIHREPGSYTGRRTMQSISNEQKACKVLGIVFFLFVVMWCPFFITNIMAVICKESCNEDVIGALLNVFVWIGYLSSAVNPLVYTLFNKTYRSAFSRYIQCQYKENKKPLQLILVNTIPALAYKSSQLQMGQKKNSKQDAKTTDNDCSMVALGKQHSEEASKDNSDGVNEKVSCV
Provide the recorded 5-HT2A BRET Eff % for the entries that follow.
# number only, unit % dropped from output

What measured 5-HT2A BRET Eff % goes with "COc1cc(Cc2ccccc2)ccc1CCNCc1ccccc1O" ?
99

Next: "COc1cc(-c2cncnc2)ccc1CCNCc1ccccc1Cl"
86

Next: Oc1ccccc1CNCC(O)c1ccc(C(F)(F)F)cc1OCc1ccccc1 (stereo not drawn) [Reference Compound 1a, reference compound]
91

Next: "CSc1ccccc1CNCCCc1ccc(C#N)cc1O"
55

Next: "COc1cc(-c2ncccn2)ccc1CCNCc1ccccc1Cl"
71

Next: "COc1ccc(CNCCc2ccc(C#N)cc2OC)cc1"
59

Next: COc1cc(C#N)c(F)cc1CCNCc1ccccc1O [Cpd #117]
97

Next: "COc1cccc(CNCCc2ccc(C#N)cc2OC)c1"
68

Next: "N#Cc1ccc(CCNCc2ccsc2Cl)c(O)c1"
80

====

biological target: 5-HT2B receptor (Homo sapiens); construct: expressed in transfected cells; host or cells: HEK293T; test: 5-HT2B Gq dissociation BRET functional assay; type: cell-based; details: Table 2; normalized to % 5-HT stimulation
Note that class boundaries on 5-HT2B BRET Eff % are LOW (below 30%), MID (30% to below 90%), HIGH (90% or more)

Which class does "CSc1ccccc1CNCCc1ccc(C(F)F)cc1O" fall in?
HIGH

Next: "COc1cc(C#N)ccc1CCNCc1ccccc1SC"
HIGH

Next: "COc1cc(C#N)ccc1CCN(C)Cc1ccccc1Cl"
LOW

Next: "COc1cc(C#N)c(F)cc1CCNCc1ccccc1SC"
HIGH

Next: "N#Cc1ccc(CCNCc2ccccc2OC(F)(F)F)c(O)c1"
HIGH

Next: "COc1cc(C#N)ccc1CCNCc1ccccc1O"
MID

Next: "CSc1ccccc1CNCCc1ccc(C#N)cc1O"
HIGH

Next: "COc1cc(Oc2ccccc2)ccc1CCNCc1ccccc1O"
LOW

Next: "COc1cc(C#N)ccc1CCNCc1ccccc1OC"
MID

Next: "COc1cc(Cc2ccccc2)ccc1CCNCc1ccccc1O"
LOW

Next: "COc1cc(-c2ncco2)ccc1CCNCc1ccccc1Cl"
HIGH

Next: COc1cc(C#N)c(F)cc1CCNCc1ccccc1O [Cpd #117]
MID

Next: COc1cc(C#N)c(F)cc1CCNCc1ccccc1O [Cpd #4]
MID

Next: "CSc1ccccc1CNCCCc1ccc(C#N)cc1O"
MID

Next: Oc1ccccc1CNCC(O)c1ccc(C(F)(F)F)cc1OCc1ccccc1 (stereo not drawn) [Reference Compound 1a, reference compound]
MID

Next: CN(C)CCc1c[nH]c2cccc(O)c12 [psilocin, reference compound]
MID

Next: "COc1ccc(CCNCc2ccccc2SC)c(O)c1"
HIGH

Next: "COc1cc2c(cc1CCNCc1ccccc1O)CCO2"
MID

Next: "CSc1ccccc1CNC[C@@H]1CCc2cc(C#N)cc(O)c21"
LOW

Next: "CSc1ccccc1CCCNCCc1ccc(C#N)cc1O"
LOW

Next: "COc1cc(C#N)ccc1CCNCc1cccc2occc12"
HIGH

Next: "N#Cc1cc(O)c(CCNCc2ccccc2O)cc1F"
MID

Next: "COc1cc(C#N)ccc1CCNCC1CC1"
LOW

Next: "N#Cc1ccc(CCNCc2ccccc2O)cc1"
LOW

Next: "CSc1ccccc1CCNCCc1ccc(C#N)cc1O"
MID

Next: "COc1cc(C#N)ccc1CCNCc1cccs1"
LOW

====

Provide the recorded EC50 for the entries that follow.
molecular target: 5-HT2A receptor (Homo sapiens); construct: expressed in transfected cells; host or cells: HEK293T; experiment: 5-HT2A Gq dissociation BRET functional assay; format: cell-based; details: Table 4; unit inferred; read-out: EC50 BRET 2A
# number only, unit nM dropped from output

What measured EC50 goes with "COc1cc(C#N)ccc1CCNCc1cccc2occc12" ?
29.8

Next: Oc1ccccc1CNCC(O)c1ccc(C(F)(F)F)cc1OCc1ccccc1 (stereo not drawn) [Reference Compound 1a, reference compound]
451

Next: "CSc1ccccc1CNCCc1ccc(C#N)cc1O"
4.8

====

target: 5-HT5A (Homo sapiens); experiment: 5-HT receptor activity panel (Table 3); assay type: cell-based
Sequence (P47898 whole entry, species assumed): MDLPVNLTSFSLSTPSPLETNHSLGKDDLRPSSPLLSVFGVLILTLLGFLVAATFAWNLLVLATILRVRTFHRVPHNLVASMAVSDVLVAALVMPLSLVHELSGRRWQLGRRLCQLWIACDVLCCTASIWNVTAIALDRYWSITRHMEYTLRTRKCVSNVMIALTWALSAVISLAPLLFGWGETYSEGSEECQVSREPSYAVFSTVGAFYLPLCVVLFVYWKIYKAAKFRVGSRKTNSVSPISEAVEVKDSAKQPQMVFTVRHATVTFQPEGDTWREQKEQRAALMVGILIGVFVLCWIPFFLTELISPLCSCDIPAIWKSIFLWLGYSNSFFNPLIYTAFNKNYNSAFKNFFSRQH
QUANTITY_NAME: pEC50
// pEC50: -log10(molar conc.)

What measured pEC50 goes with CN(C)CCc1c[nH]c2cccc(O)c12 [psilocin, reference compound] ?
6.46

====

target: human ether-a-go-go-related gene (hERG) K+ channel (Homo sapiens, UniProt Q12809); construct: Eurofins; test: Eurofins hERG Qube APC Assay
Sequence (Q12809 whole entry): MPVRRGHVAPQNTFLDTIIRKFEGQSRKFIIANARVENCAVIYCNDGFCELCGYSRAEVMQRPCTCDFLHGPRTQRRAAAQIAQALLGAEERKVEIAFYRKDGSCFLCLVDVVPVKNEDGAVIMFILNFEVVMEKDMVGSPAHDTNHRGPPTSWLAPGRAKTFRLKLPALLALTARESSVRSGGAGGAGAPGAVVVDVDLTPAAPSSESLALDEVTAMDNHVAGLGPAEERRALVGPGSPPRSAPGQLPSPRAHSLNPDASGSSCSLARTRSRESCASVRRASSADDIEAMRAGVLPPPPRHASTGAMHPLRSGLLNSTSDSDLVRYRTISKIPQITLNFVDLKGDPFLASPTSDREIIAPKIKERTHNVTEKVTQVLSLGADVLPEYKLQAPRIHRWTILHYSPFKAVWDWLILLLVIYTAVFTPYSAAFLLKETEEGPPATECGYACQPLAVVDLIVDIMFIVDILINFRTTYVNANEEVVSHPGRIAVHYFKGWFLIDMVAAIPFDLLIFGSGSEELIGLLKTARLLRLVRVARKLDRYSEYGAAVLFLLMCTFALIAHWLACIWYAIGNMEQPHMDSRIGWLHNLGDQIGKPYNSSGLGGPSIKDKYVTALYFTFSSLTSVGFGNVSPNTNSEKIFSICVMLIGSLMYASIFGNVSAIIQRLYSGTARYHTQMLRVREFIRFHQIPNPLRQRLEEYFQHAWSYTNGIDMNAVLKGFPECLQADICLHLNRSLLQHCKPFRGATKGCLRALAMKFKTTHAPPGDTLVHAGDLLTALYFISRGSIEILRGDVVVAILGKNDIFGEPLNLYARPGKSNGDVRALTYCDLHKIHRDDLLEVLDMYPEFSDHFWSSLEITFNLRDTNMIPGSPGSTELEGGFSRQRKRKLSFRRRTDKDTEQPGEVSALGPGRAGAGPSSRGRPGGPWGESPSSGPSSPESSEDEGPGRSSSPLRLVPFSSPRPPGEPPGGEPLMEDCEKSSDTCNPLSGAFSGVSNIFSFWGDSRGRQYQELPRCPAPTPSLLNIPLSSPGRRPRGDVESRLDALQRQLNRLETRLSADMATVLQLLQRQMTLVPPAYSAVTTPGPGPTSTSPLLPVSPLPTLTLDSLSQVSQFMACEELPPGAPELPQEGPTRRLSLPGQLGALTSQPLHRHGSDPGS
Response field label: string, one of Satisfied (IC50 strictly below 2 µM) or Not satisfied.

Consider "COc1cc(C#N)ccc1CCNCc1cccc2c1CCO2" . Does its IC50 lie strictly below 2 µM?
Satisfied

Next: "COc1cc(C#N)ccc1CCNCc1cccc2occc12"
Satisfied

Next: "COc1cc(C(F)(F)F)ccc1CCNCc1ccccc1O"
Satisfied

Next: "CSc1ccc(CCNCc2ccccc2O)c(O)c1"
Satisfied

Next: Oc1ccccc1CNCC(O)c1ccc(C(F)(F)F)cc1OCc1ccccc1 (stereo not shown) [Reference Compound 1a, reference compound]
Not satisfied

Next: "Oc1cc(Cl)ccc1CCNCc1ccccc1O"
Satisfied

Next: "COc1cc(C#N)c(F)cc1CCNCc1ccccc1O"
Satisfied

Next: "CSc1ccccc1CNCCc1ccc(C#N)cc1O"
Not satisfied

Next: "COc1cc(C#N)ccc1CCNCc1ccccc1SC"
Satisfied

Next: "COc1cc(C#N)ccc1CCNCc1ccccc1Cl"
Satisfied

Next: "COc1cccc(CNCCc2ccc(C#N)cc2OC)c1"
Satisfied

====

biological target: 5-HT2C receptor (Homo sapiens, UniProt P28335); construct: expressed in transfected cells; host or cells: HEK293T; assay: cell-based; format: cell-based; details: Table 2; normalized to % 5-HT stimulation
Sequence (P28335 33-458): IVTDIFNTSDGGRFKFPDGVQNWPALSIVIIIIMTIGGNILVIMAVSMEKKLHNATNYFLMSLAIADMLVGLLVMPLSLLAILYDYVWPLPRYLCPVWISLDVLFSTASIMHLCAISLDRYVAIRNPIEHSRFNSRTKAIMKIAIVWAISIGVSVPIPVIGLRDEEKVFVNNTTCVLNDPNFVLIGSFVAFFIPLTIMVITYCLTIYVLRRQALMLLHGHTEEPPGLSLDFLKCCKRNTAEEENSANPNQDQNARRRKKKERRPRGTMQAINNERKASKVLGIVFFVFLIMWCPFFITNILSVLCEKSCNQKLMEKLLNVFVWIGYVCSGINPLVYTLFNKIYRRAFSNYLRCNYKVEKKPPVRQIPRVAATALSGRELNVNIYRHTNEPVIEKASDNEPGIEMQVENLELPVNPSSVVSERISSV
QUANTITY_NAME: 5-HT2C BRET Eff % (%)
# number only, unit % dropped from output

Enter reported 5-HT2C BRET Eff % observed with 5-HT2C receptor (Homo sapiens, UniProt P28335) for COc1cc(C#N)ccc1CCNCc1ccccc1OC [Cpd #27]
109

Next: N#Cc1ccc(CCNCc2ccccc2O)c(C(F)(F)F)c1 [Cpd #137]
83

Next: COc1cccc(CNCCc2ccc(C#N)cc2OC)c1 [Cpd #28]
91

Next: COc1cc(C#N)ccc1CCNCc1cccc2occc12 [Cpd #64]
104

Next: COc1cc(C#N)ccc1CCNCc1ccc(F)cc1 [Cpd #8]
79

Next: N#Cc1ccc(CCNCc2ccccc2O)cc1 [Cpd #114]
92

Next: CSc1ccccc1CNCCc1ccc(C(F)F)cc1O [Cpd #123]
120

Next: N#Cc1ccc(CCNCc2cccc3cc[nH]c23)c(O)c1 [Cpd #71]
92

Next: COc1cc(C#N)ccc1CCNCc1cccc2c1OCO2 [Cpd #65]
97

Next: COc1cc(C#N)ccc1CCNCc1cccc(F)c1 [Cpd #7]
126

Next: CSc1ccccc1CCCNCCc1ccc(C#N)cc1O [Cpd #135]
65

====

test: plasma PK in dog; type: in vivo; conditions: dog, read-out: T1/2 Vz (converted)
Provide the recorded half-life for the entries that follow.
# number only, unit h dropped from output

What measured half-life goes with COc1cc(C(F)(F)F)ccc1CCNCc1ccccc1O [Cpd #93] ?
1.66

Next: CSc1ccccc1CNCCc1ccc(C#N)cc1O [Cpd #109]
1.3

====

molecular target: 5-HT2B receptor (Homo sapiens, UniProt P41595); construct: expressed in transfected cells; host or cells: HEK293T; experiment: 5-HT2B Gq dissociation BRET functional assay; format: cell-based; conditions: 5-HT2B BRET EC50 (nM), Table 2; at least three replicate trials
Sequence (P41595 whole entry): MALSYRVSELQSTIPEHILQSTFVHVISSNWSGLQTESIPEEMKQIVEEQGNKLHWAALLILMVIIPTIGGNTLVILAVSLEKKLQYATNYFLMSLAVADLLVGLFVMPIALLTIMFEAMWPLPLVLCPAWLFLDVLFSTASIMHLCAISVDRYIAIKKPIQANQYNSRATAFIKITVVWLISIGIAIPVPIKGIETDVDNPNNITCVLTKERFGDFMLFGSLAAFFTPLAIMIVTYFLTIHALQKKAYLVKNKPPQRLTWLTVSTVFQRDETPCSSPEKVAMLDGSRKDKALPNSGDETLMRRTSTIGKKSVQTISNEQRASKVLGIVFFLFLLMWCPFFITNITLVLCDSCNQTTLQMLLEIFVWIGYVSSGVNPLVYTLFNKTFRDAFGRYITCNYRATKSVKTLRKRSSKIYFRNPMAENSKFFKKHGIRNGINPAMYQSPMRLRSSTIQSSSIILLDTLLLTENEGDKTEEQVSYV
Response field label: string, one of MET (EC50 strictly below 700 nM) or NOT MET.

Consider "COc1cc(C#N)ccc1CCNCc1ccccc1OC" . Does its EC50 lie strictly below 700 nM?
MET

Next: "N#Cc1cc(O)c(CCNCc2ccccc2O)cc1F"
MET

Next: COc1cc(C#N)c(F)cc1CCNCc1ccccc1O [Cpd #4]
NOT MET

Next: "COc1cc(C#N)ccc1CCNCc1ccccc1O"
NOT MET

Next: "COc1cc2c(cc1CCNCc1ccccc1O)CCO2"
MET

Next: "COc1ccc(CCNCc2ccccc2SC)c(O)c1"
NOT MET

Next: COc1cc(C#N)c(F)cc1CCNCc1ccccc1O [Cpd #117]
NOT MET

Next: "CSc1ccccc1CNCCc1ccc(C(F)F)cc1O"
NOT MET

Next: "COc1cc(C#N)ccc1CCNCc1ccccc1SC"
NOT MET

Next: "CSc1ccc(CCNCc2ccccc2SC)c(O)c1"
MET

Next: "COc1cc(C#N)c(F)cc1CCNCc1ccccc1SC"
NOT MET

Next: "COc1cc(C#N)ccc1CCN(C)Cc1ccccc1Cl"
NOT MET
